test system: MCF7; assay: NCI tumour cell line growth inhibition, 48 h
Active and inactive are the calls of the source. Rule as the data show it: active = GI50 up to about 1.1 µM and inactive = higher.
Hi there, I'd appreciate the recorded GI50 for every entry that follows.

Recorded GI50, per entry:
CC(C)Oc1c(O)c2c3c(oc(=O)n3C=CC2c2ccccc2F)c1OC(C)C (stereo unspecified) :: 28.8 µM (inactive)
COC(=O)/C=C/c1ccc2c(c1)CCC2 :: 52.5 µM (inactive)
O=C(O)CSC1=NCCN1 :: > 100 µM (inactive)
c1ccc2c(c1)[nH]c1c2cc[n+]2cc3c(cc12)CCCC3 :: 2.13 µM (inactive)
CCOC(=O)NNC(=O)NCc1ccccc1CNC(=O)NNC(=O)OCC :: > 100 µM (inactive)

Lab note: each compound below needs its GI50 filled in.
1. CO[C@@H]1/C=C\C=C(/C)C(=O)NC2=CC(=O)C(NCCN(C)C)=C(C[C@@H](C)C[C@@H](OC)[C@@H](O)[C@H](C)/C=C(\C)[C@H]1OC(N)=O)C2=O
2. Cc1ccc2c(C(=O)c3c(C)n(CCN4CCOCC4)c4ccccc34)cccc2c1
3. [O-]/[N+](=N/c1ncc(-c2ccccc2)cn1)c1ncc(-c2ccccc2)cn1
4. O=C(NCCc1ccccc1)[C@H]1CCCC[C@@H]1CCO
5. CC1(CCC2C=CCC2)CCCNC1=S (stereo unspecified)

1. < 0.01 µM (active)
2. 3.53 µM (inactive)
3. 36 µM (inactive)
4. > 100 µM (inactive)
5. > 10 µM (inactive)

Fill in the blank: the reported GI50 of COc1ccc2ccccc2c1C1NC(=O)c2ccccc2N1 (stereo unspecified) is ____.
0.78 µM (active)

====

test system: OVCAR-3; assay: NCI tumour cell line growth inhibition, 48 h
Calls of active or inactive are those of the source. No stated cut-off is given here; in the data, active = GI50 up to about 1.1 µM and inactive = higher.
The reply should be one of these categories: true (1) for active, false (0) for inactive

Use the examples below as a reference point.
COc1ccc(CC2(Cc3ccc(OC)cc3)CCOC2=O)cc1 :: false (0)
O=C(O)CC(O)(C(=O)O)C(O)C(=O)O (centres undefined) :: false (0)
CCc1nc(N)c2nc(-c3ccc(C#N)cc3)oc2n1 :: false (0)
CCCCCCCCCCCC1CC(=O)NCCCN(C)CCCCN(C)CCCN1C (centres undefined) :: false (0)
Cc1ccnc(NC(=S)Nc2ccccc2Cl)c1 :: false (0)
Cc1cc(Cl)ccc1NC(=O)CCCC(=O)C1CCCC1=O (centres undefined) :: false (0)
CC(=O)OCC1OC(N2C(=O)C(=O)c3cc(C)ccc32)C(OC(C)=O)C(OC(C)=O)C1OC(C)=O (centres undefined) :: false (0)
[O-]/[N+](=N/c1ncc(-c2ccccc2)cn1)c1ncc(-c2ccccc2)cn1 :: false (0)

Now, please, on to the next compound.
Please let me know the test result on file for Nc1ccc(N)c2c1C(=O)c1ccccc1C2=O .
false (0)

====

test system: SF-539; test: NCI tumour cell line growth inhibition, 48 h
Active and inactive are the calls of the source. No stated cut-off is given here; in the data, active = GI50 up to about 1.1 µM and inactive = higher.
So I've got a bunch of compounds here, and I need their GI50 values.

The examples below pair each entry with its known result.
C[C@@H](C(=O)O)N1C(c2ccco2)=C(/C(C=O)=C\c2ccco2)C(=O)/C1=C\c1ccco1 :: > 100 µM (inactive)
c1ccc(CNc2ccc3[nH]c4cnccc4c3c2)cc1 :: 18.1 µM (inactive)
Cc1nc2cc(/N=N/c3c(C)noc3C)ccc2[nH]1 :: 17.6 µM (inactive)
COC(=O)CCCN(C)c1nc(N)n[nH]1 :: > 100 µM (inactive)
CC(=O)OCC1OC(N2C(=O)C(=O)c3cc(C)ccc32)C(OC(C)=O)C(OC(C)=O)C1OC(C)=O (configuration not stated) :: > 100 µM (inactive)

Please state, for each entry, its recorded GI50.
1. O=C(O)CCSC(=O)Nc1cccc(F)c1
2. O=S(=O)(O)c1cc(O)c2c(O)c(/N=N/c3ccc(/C=C/c4ccc(/N=N/c5c(S(=O)(=O)O)cc6cc(S(=O)(=O)O)cc(O)c6c5O)cc4S(=O)(=O)O)c(S(=O)(=O)O)c3)c(S(=O)(=O)O)cc2c1

1. > 100 µM (inactive)
2. > 100 µM (inactive)

Provide reported GI50 for each item, in the same order as listed.
1. O=C1C2C3CCC(C2C(=O)N1CO)C1C2C(=O)N(CO)C(=O)C2C31 (configuration not stated)
2. O=S(=O)(c1ccccc1)C1(C2(S(=O)(=O)c3ccccc3)CCN=N2)CCN=N1 (configuration not stated)
3. COc1cc(C2C(Cl)C(=O)N2NC(=O)c2ccc(NC(C)=O)cc2)cc(Br)c1O (configuration not stated)
4. CS/C1=C(\c2ccc(C)cc2)N(c2ccccc2)C(=O)C(=O)N(c2ccccc2)/C(c2ccc(C)cc2)=C(/SC)SS1

43 µM (inactive)
> 100 µM (inactive)
> 100 µM (inactive)
> 100 µM (inactive)

What does the record list as GI50 for COC(=O)C(=O)C(C(=O)C(=O)Nc1ccc(C)cc1)c1nc2ccc(C(=O)c3ccccc3)cc2nc1O (configuration not stated) ?
> 100 µM (inactive)

From: ChEMBL document CHEMBL1201862
